test system: SR; experiment: NCI tumour cell line growth inhibition, 48 h
Calls of active or inactive are those of the source. No stated cut-off is given here; in the data, active = GI50 up to about 1.1 µM and inactive = higher. Bridge positions count the residues as written; N and C are the ends. Square brackets hold non-standard residues; d marks the D form. Peptide text beside a SMILES is read from it. * marks the point of attachment. Cbz = O=C(OCc1ccccc1)*; Dab = NCC[CH](N)C(=O)O; Bn = c1ccc(C*)cc1
Outcomes you can answer with include only these: Yes = active, No = inactive

For orientation, consider the following solved cases.
[[record]]
compound = "CC(C)CC1NC(=O)C(Cc2ccccc2)NC(=O)C(Cc2ccccc2)NC(=O)C(NC(=O)C(Cc2ccc(OCc3ccccc3)cc2)NC(=O)OCc2ccccc2)CCNC1=O (configuration not stated) (Cbz-Y(Bn)[Dab]FFL; lactam 2-C; configuration not given here)"
label_value = "No"

[[record]]
compound = "O=C(c1ccco1)C1CC(c2ccc3ccccc3c2O)=NN1 (configuration not stated)"
label_value = "No"

[[record]]
compound = "NCc1cccc(O)c1O"
label_value = "No"

[[record]]
compound = "CCNC(=O)Nc1cccc(NC(=O)NCC)n1"
label_value = "No"

[[record]]
compound = "O=CC(O)C(O)C(O)C(O)COP(=O)(O)Cc1ccccc1 (configuration not stated)"
label_value = "No"

[[record]]
compound = "CC(=O)C1(c2ccccc2)CCCN(C)CC1 (configuration not stated)"
label_value = "No"

[[record]]
compound = "NNC(=O)c1ccc(OCc2nc3ccccc3[nH]2)cc1"
label_value = "No"

[[record]]
compound = "COC1=CC(=O)C(C2(OC(C)C)OC(=O)C(Cl)=C2Cl)=CC1=O (configuration not stated)"
label_value = "Yes"

[[record]]
compound = "c1ccc(N2N=C(c3ccco3)CC2c2ccco2)cc1 (configuration not stated)"
label_value = "No"

[[record]]
compound = "COc1ccc(C2NC(N)=C(C#N)C3=C2C(C)CCC3)cc1OC (configuration not stated)"
label_value = "Yes"


Q) Outcome logged for "OCCCN(CCc1ccc(Cl)c(Cl)c1)CCN1CCCC1" in this assay:
A) No

Q) Outcome logged for "CCOC(=O)c1cc(NC(=O)c2ccccc2)c(=O)n2c(cc3c(Cl)cccc32)c1O" in this assay:
A) No

----------
tested on: HCT-116; assay: NCI tumour cell line growth inhibition, 48 h
Calls of active or inactive are those of the source. No stated cut-off is given here; in the data, active = GI50 up to about 1.1 µM and inactive = higher. Square brackets hold non-standard residues; d marks the D form. Peptide text beside a SMILES is read from it. * marks the point of attachment. ξ: configuration not given here. NMeN = CN[C@@H](CC(N)=O)C(=O)O; NMeV = CN[C@H](C(=O)O)C(C)C; ξNMeV = CNC(C(=O)O)C(C)C; Boc = CC(C)(C)OC(=O)*; ξNMeA = CNC(C)C(=O)O
Assignment: determine reported GI50 for the given molecules.

[[record]]
molecule = "COC(=O)C(C)N(C)C(=O)[C@H](CC(N)=O)N(C)C(=O)[C@@H]1CCCN1C(=O)[C@H](C(C)C)N(C)C(=O)C(C(C)C)N(C)C(=O)[C@@H](NC(=O)OC(C)(C)C)C(C)C (some centres undefined) (Boc-V[ξNMeV][NMeV]P[NMeN][ξNMeA]-OMe)"
result = "30.3 µM (inactive)"

[[record]]
molecule = "c1ccc(C2C3=C(c4ccccc4CC3)N3c4cc5c(cc4=NC34CCCCC24)Nc2ccccc2N=5)cc1 (centres undefined)"
result = "5.55 µM (inactive)"

[[record]]
molecule = "CCC1=NC(CO)[C@H](c2ccccc2)O1 (some centres undefined)"
result = "> 100 µM (inactive)"

[[record]]
molecule = "COC(=O)[C@@H](NC1(c2ccccc2)c2ccccc2-c2ccccc21)[C@H](OC(=O)[C@H]1CCCN1S(=O)(=O)c1ccccc1)C(=O)OC"
result = "> 100 µM (inactive)"

[[record]]
molecule = "NC1CNC(=O)c2c(Cl)sc(Cl)c21 (centres undefined)"
result = "> 100 µM (inactive)"

[[record]]
molecule = "CCOC(=O)c1ncoc1[C@H]1COC(C)(C)O1"
result = "> 100 µM (inactive)"

[[record]]
molecule = "O=c1[nH]nc(Cc2ccccc2)[nH]1"
result = "> 100 µM (inactive)"

[[record]]
molecule = "CCC(C)NC1=NCC(C)S1 (centres undefined)"
result = "> 100 µM (inactive)"

[[record]]
molecule = "CCC1CCN/C(=N/S(=O)(=O)c2cc(C)c(Cl)cc2S)N1 (centres undefined)"
result = "24.7 µM (inactive)"

[[record]]
molecule = "CC1(O)C(C)(O)C(C)(O)C1(C)O (centres undefined)"
result = "> 100 µM (inactive)"


Items follow; give GI50 for each.
1. C/C(=N\N(C)C)C(CN1CCCCC1)C(c1ccccc1)c1c(O)c2ccccc2oc1=O (centres undefined)
2. Cn1nc(-c2ccc(S(=O)(=O)N/C(=N/c3ccc(Cl)cc3)NN)s2)cc1C(F)(F)F
3. COc1ccccc1C(=O)Nc1ccc(Cl)c(C(=O)OC(C)C)c1
4. C=C(C)C(O)C(O)C[C@@H](C)C1CC[C@]23C[C@]12CCC1[C@@]2(C)CCC(OC(C)=O)C(C)(C)C2CC(OC2OC(CO)C(O)C(O)C2O)[C@]13C (some centres undefined)
5. CS(=O)(=O)NNS(=O)(=O)c1cccc([N+](=O)[O-])c1
6. COc1ccc2cc1Oc1ccc(cc1)C[C@@H]1c3cc(c(OC)cc3CCN1C)Oc1c(OC)c(OC)cc3c1[C@H](C2)N(C)CC3 [ISOTETRANDRINE]

A)
> 100 µM (inactive)
14.9 µM (inactive)
39.1 µM (inactive)
15.9 µM (inactive)
> 100 µM (inactive)
17.7 µM (inactive)

----------
system: CAKI-1; experiment: NCI tumour cell line growth inhibition, 48 h
Activity calls are given as the source filed them. Rule as the data show it: active = GI50 up to about 1.1 µM and inactive = higher.
Outcomes you can answer with include only these: 1.0 for active, 0.0 for inactive

[[record]]
compound = "COc1ccc(C2=Nc3ccccc3SC(C)C2)cc1OC (configuration not stated)"
label_value = 0.0

[[record]]
compound = "COc1cccc(-c2cc(=O)c3cc(N4CCCCC4)ccc3[nH]2)c1"
label_value = 1.0

[[record]]
compound = "CC1(O)C(C)(O)C(C)(O)C1(C)O (configuration not stated)"
label_value = 0.0

[[record]]
compound = "Cc1cc(S(=O)(=O)NC2=Nc3ccc(Cl)cc3C(c3ccccc3)N2)c(S)cc1Cl (configuration not stated)"
label_value = 0.0

[[record]]
compound = "CN(CCCNC(=O)c1nn(-c2ccccc2)c2c1ccc1ccccc12)CCCNC(=O)c1nn(-c2ccccc2)c2c1ccc1ccccc12"
label_value = 0.0

[[record]]
compound = "O=C1OC2(C(F)(F)F)Oc3ccccc3CN2C12CCCCC2 (configuration not stated)"
label_value = 0.0

[[record]]
compound = "C#C[C@H]1CCCCCC1O (some centres not stated)"
label_value = 0.0

[[record]]
compound = "CCCCCCCCCCCC(=O)OCC1OC(n2cc(F)c(=O)[nH]c2=O)C(N)C(O)C1O (configuration not stated)"
label_value = 0.0


Q) Outcome logged for "CCOC(=O)c1sc2nc(SC)nc3c2c1NC(=O)CN3c1ccc(F)cc1" in this assay:
A) 0.0

Q) Outcome logged for "O=[N+]([O-])c1cccc(-c2ncnc(-c3cccc([N+](=O)[O-])c3)n2)c1" in this assay:
A) 0.0

Q) Outcome logged for "COc1ccc(C2=C(OC(=O)N(C)C)c3cccn3-c3cc(Cl)ccc3S2)cc1" in this assay:
A) 0.0

Q) Outcome logged for "c1cc2c(cnc3cscc32)s1" in this assay:
A) 0.0

Q) Outcome logged for CCC1CCN/C(=N/S(=O)(=O)c2cc(C)c(Cl)cc2S)N1 (configuration not stated) in this assay:
A) 0.0

Q) Outcome logged for "Cc1ccc(Cc2nn(C)c(=O)n2-n2cccc2)cc1" in this assay:
A) 0.0

Q) Outcome logged for C=C1C(=O)OCC2C(C(=O)O)=CC3C(C)C(C)=CC123 (configuration not stated) in this assay:
A) 0.0

Q) Outcome logged for "COc1ccc2c(c1)/C(=C\c1c(Cl)[nH]c3ccccc13)C(=O)N2" in this assay:
A) 0.0

Q) Outcome logged for C/C(=C\c1ccccc1)C(O)C(=O)c1nc2ccc(Cl)cc2nc1O (configuration not stated) in this assay:
A) 0.0

Q) Outcome logged for COC(=O)[C@]12CC3C=CC1N(C3)C(CBr)c1c2n(S(=O)(=O)c2ccccc2)c2ccccc12 (some centres not stated) in this assay:
A) 0.0

Q) Outcome logged for O=C1NN=C(c2ccc([N+](=O)[O-])cc2)C1n1nc(-c2ccccc2)c2ccccc2c1=O (configuration not stated) in this assay:
A) 0.0

Q) Outcome logged for "COc1cc(NC(C)=O)ccc1C(=O)N/N=C/c1ccco1" in this assay:
A) 0.0

Q) Outcome logged for "Cc1ccc(/N=N/c2c(O)ccc3cc(S(=O)(=O)O)ccc23)cc1" in this assay:
A) 0.0

Q) Outcome logged for "Cn1c(=O)cc(NNc2ccc(Cl)c(Cl)c2)[nH]c1=O" in this assay:
A) 0.0

Reference source: ChEMBL document CHEMBL1201862
